Cited source: ChEMBL document CHEMBL1134236

Known MIC of a selection of compounds
- System: Staphylococcus aureus
- Experiment: Minimum inhibitory concentration against methicillin-resistant Staphylococcus aureus (MRSA) A27223
- Assay type: functional
Answer with a number only, understood to be in µg/mL.

Here is how some compounds turned out for MIC.
Look up MIC for this compound: Cc1cc(SCC2=C(C(=O)[O-])N3C(=O)[C@@H](NC(=O)CSc4cc(Cl)ccc4Cl)[C@H]3SC2)cc(CCC(=O)O)[n+]1CCc1cccs1
4

Look up MIC for this compound: Cc1cc(SCC2=C(C(=O)O)N3C(=O)[C@@H](NC(=O)CSc4cc(Cl)ccc4Cl)[C@H]3SC2)cc(CCC(=O)O)[n+]1CCN.O=C(O)C(F)(F)F.O=C([O-])C(F)(F)F
2

Now let's try a different one.
Look up MIC for this compound: NCCC[n+]1ccc(SCC2=C(C(=O)O)N3C(=O)[C@@H](NC(=O)CSc4cc(Cl)ccc4Cl)[C@H]3SC2)cc1CCC(=O)O.O=C(O)C(F)(F)F.O=C([O-])C(F)(F)F
2
